Assay: CC50 assay in the anti-HCV replicon assay (CellTiter-Glo)
Type: cell-based, human
Settings: human, Huh-7 hepatoma cells harbouring an HCV replicon; Huh-7 HCV replicon cells, 3 days incubation, CellTiter-Glo luminescence
experimental_readout: CC50 at 3 days

These solved cases illustrate the format of a correct answer.
Nc1nc(OCCF)c2cc(-c3ccc(O)cc3)ccc2n1
> 20 µM
Cc1ccccc1-c1ccc2nc(N)nc(OCC3CCC3)c2c1
10 to 20 µM
CC(C)Oc1nc(N)nc2ccc(-c3ccccc3C(F)(F)F)cc12
10 to 20 µM
CC(C)Oc1nc(N)nc2ccc(-c3ccc(C(=O)NC4CCCC4)cc3)cc12
< 10 µM
Cc1ccc(-c2ccc3nc(N)nc(OC(C)C)c3c2)cc1
> 20 µM

Next:
Can you share its CC50 at 3 days? I mean this molecule: `CCOc1nc(NCc2ccc(S(N)(=O)=O)cc2)nc2ccc(-c3cccc(S(N)(=O)=O)c3)cc12`
< 10 µM

====

Assay: CC50 assay in the anti-HCV replicon assay (CellTiter-Glo)
Format: cell-based, human
Details: human, Huh-7 hepatoma cells harbouring an HCV replicon; Huh-7 HCV replicon cells, 3 days incubation, CellTiter-Glo luminescence
The entries below come with measured CC50 at 3 days values attached.

Examples with answers:
Nc1nc(OCCF)c2cc(-c3ccc(C(=O)NC4=NCCS4)cc3)ccc2n1
> 20 µM
CC(C)Oc1nc(N)nc2ccc(-c3cc4ccccc4s3)cc12
10 to 20 µM

Please examine the following record next.
Look up CC50 at 3 days for this compound: `CCOc1nc(N)nc2ccc(-c3ccc(C(=O)NOC)cc3)cc12`
> 20 µM

====

Test: CC50 assay in the anti-HCV replicon assay (CellTiter-Glo)
Type: cell-based, human
Conditions: human, Huh-7 hepatoma cells harbouring an HCV replicon; Huh-7 HCV replicon cells, 3 days incubation, CellTiter-Glo luminescence
experimental_readout: CC50 at 3 days

Past entries and their recorded results:
CCOc1nc(N)nc2ccc(-c3cccc(C#N)c3)cc12
> 20 µM
CCOc1nc(N)nc2ccc(-c3ccc(C(=O)NC4=NCCS4)cc3)cc12
> 20 µM
Nc1nc(OCC2CCC2)c2cc(-c3cccc(F)c3F)ccc2n1
> 20 µM
CC(C)Oc1nc(N)nc2ccc(-c3cc4ccccc4o3)cc12
> 20 µM
N#Cc1cccc(-c2ccc3nc(N)nc(OCC4CCC4)c3c2)c1
10 to 20 µM
CN(C)CCNC(=O)c1ccc(-c2ccc3nc(NCc4ccc(F)cc4)nc(O[C@H]4CCOC4)c3c2)cc1
< 10 µM
CC(C)Oc1nc(N)nc2ccc(-c3ccc(C#N)cc3)cc12
> 20 µM
Nc1nc(OCCN2CCOCC2)c2cc(-c3ccccc3C(F)(F)F)ccc2n1
> 20 µM
CCOc1nc(N)nc2ccc(-c3ccc(C(=O)NC(C)(C)C)cc3)cc12
10 to 20 µM
Nc1nc(O[C@@H]2CCOC2)c2cc(-c3ccc(C(=O)NCCCN4CCCC4)cc3)ccc2n1
< 10 µM

Which value of CC50 at 3 days has been reported for `CCOc1nc(N)nc2ccc(-c3ccc(C(N)=O)cc3)cc12` in the records?
> 20 µM

Item under review: `CCOc1nc(N)nc2ccc(-c3ccc(C(=O)N4CCCC4)cc3)cc12` . Reported CC50 at 3 days?
> 20 µM

Item under review: `Nc1nc(OCCO)c2cc(-c3ccc(C(=O)NC4CC4)cc3)ccc2n1` . Reported CC50 at 3 days?
> 20 µM

What does the data say about its CC50 at 3 days? Entry: `Nc1nc(OCCN2CCOCC2)c2cc(-c3cc4ccccc4s3)ccc2n1`
> 20 µM

# query: CC50 at 3 days of entry `CC(C)Oc1nc(N)nc2ccc(-c3ccc(C(=O)N4CCCCC4)cc3)cc12`
> 20 µM

# get_value(readout='CC50 at 3 days', item= `CCOc1nc(N)nc2ccc(-c3ccc(F)c(F)c3)cc12` )
> 20 µM

Any idea what its CC50 at 3 days is? The molecule is `CN(C)CCCOc1nc(N)nc2ccc(-c3cc(F)c(F)c(F)c3)cc12`
> 20 µM

Give its CC50 at 3 days value. Item: `CCOc1nc(N)nc2ccc(-c3ccc(C(=O)N(C)C)cc3)cc12`
> 20 µM

Reference for the values: patent US8673929B2
